- System: Bladder cancer cell line UM-UC-3
- ASSAY_INFO: Inhibitory activity on cancer cells, CellTiter-Glo viability, UM-UC-3
- Type: cell-based
- CONDITION_CONTEXT: Homo sapiens, UMUC3, 72 hours treatment
The entries below come with measured IC50 values attached.
Provide only the numeric value, understood in µM.

Record excerpt, results attached:
Cl.O=[N+]([O-])c1cc(Cl)c2c(OCc3ccccc3)ccnc2c1O [Example 67, hydrochloride] | 9.28
O=[N+]([O-])c1ccc2c(Cl)ccnc2c1O | 7.5
O=[N+]([O-])c1ccc2c(Br)ccnc2c1O | 8.9
O=[N+]([O-])c1cc(Cl)c2c(F)ccnc2c1O | 11.5

Form field: IC50 recorded for COC(=O)N1CCN(c2ccnc3c(O)c([N+](=O)[O-])ccc23)CC1 with Bladder cancer cell line UM-UC-3 (enter value)
11.4

Test system Bladder cancer cell line UM-UC-3; read-out IC50; what value for O=[N+]([O-])c1cc(Cl)c2c(OCCF)ccnc2c1O ?
12.3

Value wanted: IC50 (Bladder cancer cell line UM-UC-3) of entry CS(=O)(=O)N1CCN(c2ccnc3c(O)c([N+](=O)[O-])cc(Cl)c23)CC1
10.6

* * *

- Tested on: Mouse prostate cancer cell line RM1
- ASSAY_INFO: Inhibitory activity on cancer cells, CellTiter-Glo viability, RM1
- Format: cell-based
- CONDITION_CONTEXT: 72 hours treatment
pIC50: −log10 of the molar value.
QUANTITY_KIND: pIC50

Here's what some known entries look like.
O=[N+]([O-])c1ccc2c(N3CC=CC3)ccnc2c1O | < 4.00
O=[N+]([O-])c1ccc2c(O)ccnc2c1O | < 4.00
CNC(=O)N1CCN(c2ccnc3c(O)c([N+](=O)[O-])cc(Cl)c23)CC1 | < 4.30

Next compound, pIC50 to be filled in.
Request body: readout pIC50, system Mouse prostate cancer cell line RM1, query O=[N+]([O-])c1cc(Cl)c2c(N3CCNCC3)ccnc2c1O . Return the value.
< 4.30

* * *

- Tested on: Prostate cancer cell line LNcaP
- ASSAY_INFO: Inhibitory activity on cancer cells, CellTiter-Glo viability, LNcaP
- Type: cell-based
- CONDITION_CONTEXT: Homo sapiens, 72 hours treatment
pIC50: −log10 of the molar value.
compounds and their reported pIC50

Sample answers from the record:
O=[N+]([O-])c1ccc2c(N3CC=CC3)ccnc2c1O [Example 23] | < 4.00
O=[N+]([O-])c1ccc2c(NC3COC3)ccnc2c1O [Example 19, 7-Nitro-4-(3-oxetanylamino)quinolin-8-ol] | < 4.00

Fill blank: measured pIC50 of the compound O=[N+]([O-])c1ccc2c(O)ccnc2c1O [Example 30, 7-Nitroquinoline-4,8-diol] is ____.
< 4.00
